Test system: E. coli BW25113 micFp lux reporter
Assay: promoter activity interaction Z-score (Lux/OD deviation from empty-vector control); higher = stronger promoter induction by the compound
Details: 0.25 µg/ml; genetic background: Δrob
REPORTED_ENDPOINT: promoter activity interaction Z-score
Reply with the value as a number alone.

Examples with answers:
# return recorded promoter activity interaction Z-score for input CN(C)c1ccc(O)c2c1C[C@H]1C[C@H]3[C@H](N(C)C)C(O)=C(C(N)=O)C(=O)[C@@]3(O)C(O)=C1C2=O 0.138

# return recorded promoter activity interaction Z-score for input C/C(=C\C(=O)OCCCCCCCCC(=O)O)C[C@@H]1OC[C@H](C[C@@H]2O[C@H]2[C@@H](C)[C@H](C)O)[C@@H](O)[C@H]1O 0.0594

# return recorded promoter activity interaction Z-score for input CC1(C)S[C@@H]2[C@H](NC(=O)[C@H](N)c3ccc(O)cc3)C(=O)N2[C@H]1C(=O)O 0.0252

Next:
# return recorded promoter activity interaction Z-score for input CO[C@@]12[C@H](COC(N)=O)C3=C(C(=O)C(C)=C(N)C3=O)N1C[C@@H]1N[C@@H]12 -0.0293
